# Measured on: P. falciparum apicoplast DNA polymerase (Pf-apPOL) (Plasmodium falciparum, UniProt Q8ILY1)
# Sequence (Q8ILY1 entry or part of it): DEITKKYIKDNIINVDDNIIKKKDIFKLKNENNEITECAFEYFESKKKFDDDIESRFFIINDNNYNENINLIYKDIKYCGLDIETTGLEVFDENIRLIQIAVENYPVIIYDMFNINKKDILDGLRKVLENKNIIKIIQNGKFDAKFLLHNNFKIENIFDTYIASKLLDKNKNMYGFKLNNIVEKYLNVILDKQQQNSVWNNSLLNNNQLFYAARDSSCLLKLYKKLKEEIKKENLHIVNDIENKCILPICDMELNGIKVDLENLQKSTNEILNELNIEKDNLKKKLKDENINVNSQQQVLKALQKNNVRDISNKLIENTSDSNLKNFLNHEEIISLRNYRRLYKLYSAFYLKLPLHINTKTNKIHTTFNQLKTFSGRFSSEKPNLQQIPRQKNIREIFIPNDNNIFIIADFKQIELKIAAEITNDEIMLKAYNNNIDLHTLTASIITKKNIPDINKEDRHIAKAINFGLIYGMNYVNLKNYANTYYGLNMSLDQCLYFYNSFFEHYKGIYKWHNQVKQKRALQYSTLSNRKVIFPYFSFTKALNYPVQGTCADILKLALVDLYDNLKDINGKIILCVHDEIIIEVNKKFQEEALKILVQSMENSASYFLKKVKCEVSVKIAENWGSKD
# Procedure summary: Fluorescence-based high-throughput DNA polymerase assay (molecular beacon), primary screen and dose-response
# Type: biochemical
# Applied conditions: DRC-1; 10'; concentration 40
Each entry gets Not satisfied if its % inhibition Apo pol 10' stays under 80%, and Satisfied if its % inhibition Apo pol 10' is 80% or above.

{"Compound": "Cc1ncc(CSc2nc(C(C)(C)C)cs2)c(CO)c1O", "Category label": "Not satisfied"}
{"Compound": "O=C(CSc1nc2ccccc2s1)Nc1ncc([N+](=O)[O-])s1", "Category label": "Satisfied"}
{"Compound": "CO/N=C(\\C(=O)N[C@@H]1C(=O)N2C(C(=O)[O-])=C(CSc3nc(=O)c([O-])nn3C)CSC12)c1csc(N)n1.[Na+].[Na+] (stereo partly drawn)", "Category label": "Not satisfied"}
{"Compound": "O=C1C(=Cc2ccccc2O)Oc2ccc(O)cc21", "Category label": "Not satisfied"}
{"Compound": "CN(C)C1C(c2ccccc2)=C(c2ccccc2)SC(c2ccccc2)C1[N+](=O)[O-] (stereo not drawn)", "Category label": "Not satisfied"}
{"Compound": "Cc1cc(C)cc(-n2nc3c(c2NC(=O)c2ccco2)CSC3)c1", "Category label": "Satisfied"}
{"Compound": "CC(=O)c1cc2c(N)c(/C(N)=N/C#N)sc2nc1C", "Category label": "Not satisfied"}
{"Compound": "Cc1ccc(C(=O)/C=C/C=C/C=C/N(C)C)o1", "Category label": "Not satisfied"}
{"Compound": "Cc1cccc2c(C(=O)NC(C)C)cc(N(C)C)nc12", "Category label": "Not satisfied"}
{"Compound": "Cn1nc(C(=O)N2CCc3c(nc4cc(-c5ccccc5)[nH]n4c3=O)C2)c2ccccc21", "Category label": "Not satisfied"}
{"Compound": "O=C(O)CCS(=O)(=O)c1ccc(-c2ccc(S(=O)(=O)CCC(=O)O)cc2)cc1", "Category label": "Satisfied"}
{"Compound": "COc1ccc(C=C2Oc3c(ccc4c3CN(c3ccc5c(c3)OCO5)CO4)C2=O)cc1OC", "Category label": "Not satisfied"}
{"Compound": "O=C(c1c[nH]c2ncccc12)N1CCCCCC1 [Molecule 51, O=C(c1c[nH]c2c1cccn2)N1CCCCCC1]", "Category label": "Not satisfied"}
{"Compound": "CCOC(=O)C1=C2c3cc(OC)c(OC)cc3CC(C)(C)N2C(=O)C1=O", "Category label": "Not satisfied"}
{"Compound": "Oc1ccc(N=Nc2ccccc2)c(O)c1", "Category label": "Not satisfied"}
{"Compound": "O=c1cc(-c2ccccc2)oc2c(O)c(O)ccc12", "Category label": "Not satisfied"}
{"Compound": "O=C(Cc1cc(=O)[nH]c(SCc2ccccc2)n1)Nc1ccc2c(c1)OCO2", "Category label": "Satisfied"}
{"Compound": "Cc1ccc2c(C(=O)NCCc3cccnc3)cc(NC(=O)C(C)C)cc2n1", "Category label": "Not satisfied"}
{"Compound": "CCSc1nnc(NC(=O)Cc2csc(NC(=O)c3cnccn3)n2)s1", "Category label": "Not satisfied"}
{"Compound": "CSC1=C(C#N)C(=C(C#N)C#N)NC(c2ccccc2)=N1 [Molecule 2, CSc1nc([nH]c(=C(C#N)C#N)c1C#N)c1ccccc1]", "Category label": "Satisfied"}
{"Compound": "COc1cccc(Oc2c(C(F)(F)F)oc3cc(OC(=O)N(C)C)ccc3c2=O)c1", "Category label": "Not satisfied"}
{"Compound": "CC(C)(C)c1cc(C(=O)C(C#N)=NNc2cccc(Cl)c2)no1", "Category label": "Satisfied"}
{"Compound": "Cc1ccc(C)c(CSc2nc(C3CCCCC3)c(C#N)c(=O)[nH]2)c1", "Category label": "Satisfied"}
{"Compound": "COc1ccc(S(=O)(=O)/N=C2\\NC(=O)/C(=C3\\C(=O)Nc4ccc([N+](=O)[O-])cc43)S2)cc1", "Category label": "Satisfied"}
{"Compound": "O=C1NCCCn2cc(S(=O)(=O)Nc3ccccc3)cc21", "Category label": "Not satisfied"}
{"Compound": "NC(=O)c1cc[n+](CC2=C(C(=O)[O-])N3C(=O)[C@@H](NC(=O)[C@@H](c4ccccc4)S(=O)(=O)[O-])[C@H]3SC2)cc1.[Na+]", "Category label": "Satisfied"}
{"Compound": "O=C(O)CC1SC(c2ccc3c(c2)OCO3)=NC1=O (stereo not drawn)", "Category label": "Not satisfied"}
{"Compound": "CCN1C(=O)C(=Cc2cccc(OC)c2O)SC1=S", "Category label": "Not satisfied"}
{"Compound": "CN(C)C=CC(=O)c1ccccn1", "Category label": "Not satisfied"}
{"Compound": "O=C(CSc1nnc(-c2ccncc2)[nH]1)c1ccc(O)c(O)c1", "Category label": "Satisfied"}

Where do the numbers come from? From paper PMC9090415.
